Give Affinity ELISA CPE mutant ratio (1:9, pH 6.0/7.4) for every item shown.
Biological target: T1, Axl protein (human, UniProt P30530 26-451)
T1 construct: extracellular domain; also called human Axl; hAxl
T1 sequence (looked up): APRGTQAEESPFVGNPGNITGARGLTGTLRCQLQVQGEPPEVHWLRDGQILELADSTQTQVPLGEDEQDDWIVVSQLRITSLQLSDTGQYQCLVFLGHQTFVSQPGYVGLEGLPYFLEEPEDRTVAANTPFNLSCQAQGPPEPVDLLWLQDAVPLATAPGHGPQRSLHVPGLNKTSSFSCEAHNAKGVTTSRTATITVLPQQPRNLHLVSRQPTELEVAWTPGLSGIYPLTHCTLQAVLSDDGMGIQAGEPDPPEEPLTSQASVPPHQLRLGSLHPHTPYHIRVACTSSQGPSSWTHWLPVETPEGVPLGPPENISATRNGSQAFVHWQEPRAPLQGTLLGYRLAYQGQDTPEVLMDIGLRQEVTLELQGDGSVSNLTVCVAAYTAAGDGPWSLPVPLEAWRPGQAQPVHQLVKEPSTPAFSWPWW
Test: ELISA, 1:9 dilution, pH 6.0 over pH 7.4
Answers are plain numbers, in ratio.

binder	result
HC-H100D (antibody, V domains shown) VH: EVQLVQSGAEVKKPGATVKISCKVSGYSFTGHTMNWIRQPPGKGLEWIGLIKPSNGGTSYNQKFKGRVTISADKSISTAYLQWSSLKASDTAMYYCAHGDYESYFAMDYWGQGTLVTVSS VL: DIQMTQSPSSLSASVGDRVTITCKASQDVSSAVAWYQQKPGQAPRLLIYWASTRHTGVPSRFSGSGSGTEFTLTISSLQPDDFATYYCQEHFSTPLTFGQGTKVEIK	3.09

Let us examine a further case.
Inquiry: What does the record list as Affinity ELISA CPE mutant ratio (1:9, pH 6.0/7.4) for HC-F105S (antibody, V domains shown) VH: EVQLVQSGAEVKKPGATVKISCKVSGYSFTGHTMNWIRQPPGKGLEWIGLIKPSNGGTSYNQKFKGRVTISADKSISTAYLQWSSLKASDTAMYYCAHGHYESYSAMDYWGQGTLVTVSS VL: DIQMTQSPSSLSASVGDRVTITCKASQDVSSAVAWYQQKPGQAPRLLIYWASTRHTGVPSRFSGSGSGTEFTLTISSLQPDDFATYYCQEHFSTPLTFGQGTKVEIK ?
Reply text: 4.54
